System: Fibroblast
Assay: Multiplex assay against human fibroblast
Assay type: toxicity, cell-based
Conditions: 24 h, 1 µM, compound concentration 1 uM, replicate 2
Rule: measured Population Hoechst High Intensity Objects (%) below 6% gets rule met; anything equal to or greater than 6% gets rule not met.

Incoming: Threshold test, Population Hoechst High Intensity Objects (%) < 6%: "CCCn1c(=O)c2[nH]c(-c3cnn(Cc4cccc(C(F)(F)F)c4)c3)nc2n(CC)c1=O"
Outgoing: rule met

Incoming: Threshold test, Population Hoechst High Intensity Objects (%) < 6%: "COC(=N)c1nc2ccc3ncnc(Nc4ccc(OC)cc4F)c3c2s1"
Outgoing: rule not met

Incoming: Threshold test, Population Hoechst High Intensity Objects (%) < 6%: "CCCS(=O)(=O)c1nc(NC2CC2)cc(-c2ccc3c(ccn3C3CC(C)(C)NC(C)(C)C3)c2)n1"
Outgoing: rule met

Incoming: Threshold test, Population Hoechst High Intensity Objects (%) < 6%: CCOC(=O)c1c(C)[nH]c2ccc3c(c12)CN1CCc2cc(OC)ccc2C1O3 (centres undefined)
Outgoing: rule met

Incoming: Threshold test, Population Hoechst High Intensity Objects (%) < 6%: "CN[C@@H]1C[C@H]2O[C@@](C)([C@@H]1OC)n1c3ccccc3c3c4c(c5c6ccccc6n2c5c31)C(=O)NC4"
Outgoing: rule not met

Incoming: Threshold test, Population Hoechst High Intensity Objects (%) < 6%: "CCn1cc(-c2ccnc3[nH]c(-c4cccc(CN(C)C)c4)cc23)c(-c2ccc(NC(=O)N(C)C)cc2)n1"
Outgoing: rule not met

Incoming: Threshold test, Population Hoechst High Intensity Objects (%) < 6%: "S=C(NCCCc1c[nH]cn1)NCCCN(Cc1ccc(Cl)c(Cl)c1)c1ccc(Br)cn1"
Outgoing: rule not met

Incoming: Threshold test, Population Hoechst High Intensity Objects (%) < 6%: "CN1CCN(C(=O)C(C)(C)c2ccc(C(=O)Nc3cn4cc(-c5cc(C(C)(C)C)cc(C(C)(C)C)c5)ccc4n3)cc2)CC1"
Outgoing: rule not met
